# Target under test: human CYP4A11 (Homo sapiens (Human), UniProt Q02928)
# Sequence (Q02928 5-519): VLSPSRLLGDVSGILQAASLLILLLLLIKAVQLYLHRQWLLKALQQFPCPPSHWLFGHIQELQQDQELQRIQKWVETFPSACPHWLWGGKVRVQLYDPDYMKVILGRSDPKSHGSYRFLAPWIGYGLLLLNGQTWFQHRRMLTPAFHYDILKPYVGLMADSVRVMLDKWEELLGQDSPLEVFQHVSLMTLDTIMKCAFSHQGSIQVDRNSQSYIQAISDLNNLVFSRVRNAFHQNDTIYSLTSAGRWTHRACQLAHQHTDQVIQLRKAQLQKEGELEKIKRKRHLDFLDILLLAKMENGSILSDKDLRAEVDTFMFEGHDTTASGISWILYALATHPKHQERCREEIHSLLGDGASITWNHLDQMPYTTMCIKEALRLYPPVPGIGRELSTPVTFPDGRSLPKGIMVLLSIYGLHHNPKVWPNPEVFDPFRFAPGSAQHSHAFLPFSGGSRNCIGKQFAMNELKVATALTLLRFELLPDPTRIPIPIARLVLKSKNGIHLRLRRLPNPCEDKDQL
# Measurement protocol: Inhibition test against 20-HETE producing enzyme CYP4A11 (luciferine derivative, luminescence)
# Type: biochemical
# Condition set: human CYP4A11, luciferine derivative, luminescence
Value type: IC50 (nM)

# Molecule smiles, Target under test, IC50 (nM)
data = [
    ("O=C(NCC1(C(=O)O)CCCC1)c1cccc(COc2ccc(-c3ccn[nH]3)nc2)c1", "human CYP4A11 (Homo sapiens (Human), UniProt Q02928)", 74),
]

a: O=C(O)c1nc2c(o1)CN(C(=O)c1cccc(COc3ccc(-c4ccn[nH]4)nc3)c1)C2
b: O=C(O)c1ccc(F)c(CCCOc2ccc(-c3ccn[nH]3)nc2)c1
c: CN(C)CCNC(=O)CCc1cccc(COc2ccc(-c3ccn[nH]3)nc2)c1
Query: Arrange these compounds by their IC50, starting with the largest number. Provide the labels, sequenced as the question asks.
Response: c, a, b
